Target: CLC-0 E166W mutant (Torpedo marmorata, UniProt P21564, C212S/E166W)
Sequence (P21564 whole entry E166W/C212S): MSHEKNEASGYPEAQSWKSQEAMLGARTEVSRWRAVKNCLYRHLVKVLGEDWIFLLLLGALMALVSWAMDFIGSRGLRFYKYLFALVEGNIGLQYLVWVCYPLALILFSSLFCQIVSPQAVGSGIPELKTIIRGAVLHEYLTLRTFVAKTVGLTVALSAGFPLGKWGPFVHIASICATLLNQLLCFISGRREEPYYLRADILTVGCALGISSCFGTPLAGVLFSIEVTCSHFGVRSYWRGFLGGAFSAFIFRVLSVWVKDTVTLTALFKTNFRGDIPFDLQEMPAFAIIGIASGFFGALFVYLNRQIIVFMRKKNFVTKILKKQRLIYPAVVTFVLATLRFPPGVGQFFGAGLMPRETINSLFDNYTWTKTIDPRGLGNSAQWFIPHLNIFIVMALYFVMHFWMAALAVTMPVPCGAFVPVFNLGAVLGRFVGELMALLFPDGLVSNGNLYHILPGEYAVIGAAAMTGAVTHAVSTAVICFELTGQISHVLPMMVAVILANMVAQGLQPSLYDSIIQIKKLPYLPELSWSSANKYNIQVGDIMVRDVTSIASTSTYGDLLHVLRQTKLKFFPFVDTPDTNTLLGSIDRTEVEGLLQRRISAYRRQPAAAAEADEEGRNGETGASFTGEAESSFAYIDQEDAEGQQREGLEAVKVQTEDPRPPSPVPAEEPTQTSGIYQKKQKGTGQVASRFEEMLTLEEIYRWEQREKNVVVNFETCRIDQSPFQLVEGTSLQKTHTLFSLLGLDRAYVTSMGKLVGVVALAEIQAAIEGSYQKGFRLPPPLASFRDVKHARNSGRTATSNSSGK
Type: cell-based
Details: read-out: Apparent affinity (K1/2); −100 mV
Exercise: for every item that follows, state its recorded pIC50.
Give bare numbers, as −log10 of the molar value.

[
  {
    "compound": "CCCCCCCC(=O)O [octanoate]",
    "experimental.result": 1.89
  }
]

Please turn your attention to the following entry.
Data request: Consider the compound shown here: O=C(O)COc1ccc(Cl)cc1 [CPA, p-chlorophenoxy acetate] What is its recorded pIC50?
Data returned: 2.46

====

Biological target: CLC-0 E166F mutant (Torpedo marmorata, UniProt P21564, C212S/E166F)
Sequence (P21564 whole entry E166F/C212S): as the sequence (P21564 whole entry E166W/C212S) above, with W166F counted along it
Type: cell-based
Details: read-out: Apparent affinity (K1/2); −80 mV
Exercise: for every item that follows, state its recorded pIC50.
Answers are plain numbers, as −log10 of the molar value.

[
  {
    "compound": "CCCCCCCC(=O)O [octanoate]",
    "assay.target": "CLC-0 E166F mutant (Torpedo marmorata, UniProt P21564, C212S/E166F)",
    "pIC50": 3.10
  }
]

Please turn your attention to the following entry.
Data request: Value wanted: pIC50 (CLC-0 E166F mutant (Torpedo marmorata, UniProt P21564, C212S/E166F)) of entry O=C(O)COc1ccc(Cl)cc1 [CPA, p-chlorophenoxy acetate]
Data returned: 3.14
